# measuredOn: glutamate carboxypeptidase II (GCPII) (Homo sapiens)
# Sequence (Q04609 whole entry): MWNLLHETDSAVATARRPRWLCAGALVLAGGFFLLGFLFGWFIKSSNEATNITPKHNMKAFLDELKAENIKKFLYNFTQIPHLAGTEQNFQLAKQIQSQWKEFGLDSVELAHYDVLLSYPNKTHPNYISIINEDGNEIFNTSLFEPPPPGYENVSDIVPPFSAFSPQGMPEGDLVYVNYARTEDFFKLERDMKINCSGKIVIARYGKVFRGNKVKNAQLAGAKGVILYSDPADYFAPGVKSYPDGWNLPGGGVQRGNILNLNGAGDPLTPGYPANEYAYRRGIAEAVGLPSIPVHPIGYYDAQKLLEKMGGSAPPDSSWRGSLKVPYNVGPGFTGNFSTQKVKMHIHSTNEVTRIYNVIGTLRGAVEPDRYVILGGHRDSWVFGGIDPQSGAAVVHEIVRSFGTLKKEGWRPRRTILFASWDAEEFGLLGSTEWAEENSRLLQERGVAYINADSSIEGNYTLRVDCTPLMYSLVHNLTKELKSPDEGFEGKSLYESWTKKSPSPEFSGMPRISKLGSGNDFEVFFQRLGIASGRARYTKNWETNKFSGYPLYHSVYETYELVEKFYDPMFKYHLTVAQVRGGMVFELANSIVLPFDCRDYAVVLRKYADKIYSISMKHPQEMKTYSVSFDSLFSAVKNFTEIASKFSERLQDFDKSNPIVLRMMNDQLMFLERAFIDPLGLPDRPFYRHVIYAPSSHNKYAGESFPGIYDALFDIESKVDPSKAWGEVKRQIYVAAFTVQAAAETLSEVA
valueKind: Ki (nM)
All answers are understood in nM, so give the number only.

Inquiry: Sample CCC[C@H](NC(=O)N[C@@H](CCC(=O)O)C(=O)O)C(=O)O [ZJ44] — what was its Ki?
Reply text: 39.4
